Biological target: T1, cynomolgus monkey B7-H1 expressed on cells (cynomolgus monkey, UniProt G7PSE7 19-290)
T1 construct: whole, on cells; also called cyno B7-H1; cynomologus B7-H1
T1 sequence (G7PSE7 entry or part of it): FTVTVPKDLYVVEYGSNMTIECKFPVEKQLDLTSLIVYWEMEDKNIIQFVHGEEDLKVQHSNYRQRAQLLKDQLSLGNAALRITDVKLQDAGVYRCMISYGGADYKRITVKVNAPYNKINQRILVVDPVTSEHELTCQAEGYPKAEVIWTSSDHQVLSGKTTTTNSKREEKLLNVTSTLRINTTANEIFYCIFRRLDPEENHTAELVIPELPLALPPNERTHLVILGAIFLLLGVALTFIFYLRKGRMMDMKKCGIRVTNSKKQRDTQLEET
Experiment: FMAT, hybridoma supernatant, 293T cells expressing cynomolgus monkey B7-H1
Tag: Criterion met if measured Count is not below 60, Criterion not met if it is.

Reference set (4 entries):
[
  {
    "BINDER": "2.14H9 (antibody, IgG2, V domains shown, also called mAb 2.14H9) VH: EVQLVESGGGLVQPGGSLRLSCAASGFTFSRYWMSWVRQAPGKGLEWVANIKQDGSEKYYVDSVKGRFTISRDNAKNSLYLQMNSLRAEDTAVYYCAREGGWFGELAFDYWGQGTLVTVSS VL: EIVLTQSPGTLSLSPGERATLSCRASQRVSSSYLAWYQQKPGQAPRLLIYDASSRATGIPDRFSGSGSGTDFTLTISRLEPEDFAVYYCQQYGSLPWTFGQGTEVEIK",
    "GROUP": "Criterion not met"
  },
  {
    "BINDER": "3.15G8 (antibody, IgG4, V domains shown, also called mAb 3.15G8) VH: EVQLVESGGGLVQPGGSLRLSCAASGFTFSSYWMSWVRQAPGKGLEWVANIKQDGGEKYYVDSVKGRFTISRDNAKNSLFLQMNSLRAEDTAVYYCARVQLYSDYFDYWGQGTLVTVSS VL: DIQMTQSPSSVSASVGDRVTITCRASQGISSWLAWYQQKSGKAPKLLIYAASGLQSGVPSRFSGSGSGTDFTLTISSLQPEDLATYYCQQSHSLPPTFGQGTKVEIK",
    "GROUP": "Criterion met"
  },
  {
    "BINDER": "2.20A8 (antibody, IgG2, V domains shown, also called mAb 2.20A8) VH: EVQLLESGGGLVQPGGSLRLSCAASGFTFSNYAMSWVRQAPGKGLEWVSAIRGSGGSTYYADSVKGRFTISRDNSKNTLYLQMNSLRAEDTAVYYCAKDLHYDSSGYLDYWGQGTLVTVSS VL: DIQMTQSPSSVSASVGDRVTITCRASQGIRSWLAWYQQKPGKAPKLLIYAISRLQSGVPSRFSGSGSGTDFTLTISSLQPEDFATYYCQQANSFPLTFGGGTKVEIK",
    "GROUP": "Criterion met"
  },
  {
    "BINDER": "2.9D10 (antibody, V domains shown, Tested as hybridoma supernatant or purified antibody; also called mAb 2.9D10) VH: EVQLVESGGGLVQPGGSLRLSCAASGFTFSSYWMSWVRQAPGKGLEWVANIKQDGGEQYYVDSVKGRFTISRDNAKNSLYLQMNSLRAEDTAVYYCARDWNYGYYDMDVWGQGTTVTVSS VL: EIVLTQSPGTLSLSPGERATLSCRASQSVSSNYLAWFQQKPGQAPRLLIFGTSSRATGIPDRFSGSGSGTDFTLTISRLEPEDFAVYYCQQYGSSIFTFGPGTKVDIK",
    "GROUP": "Criterion not met"
  }
]

Then this binder:
Qu. Does the binder 3.18G1 (antibody, V domains shown, also called mAb 3.18G1) VH: EVQLLESGGDLVQPGGSLRLSCAASGFTFNSYAMSWVRQAPGKGLEWVSTISGSGGFTFSADSVKGRFTISRDNSKNTLFLQMNSLRVEDSAVYSCAKVLVGFNNGCWDYWGQGTLVTVSS VL: SYVLTQPPSVSVAPGQTARITCGGNNIGSKSVHWYQQKPGQAPVLVVYDDSDRPSGIPERFSGSNSGNTATLTISRVEAGDEADYYCQVWDSSNDHVVFGGGTKLTVL have recorded Count that is 60 or more?
Ans. Criterion met
